Tested on: S. aureus ATCC 29213
Assay text: MIC determination, S. aureus ATCC 29213
Test settings: S. aureus ATCC 29213 MIC screening; active = MIC ≤ 8 μg/mL
Value kind: antibacterial activity (in words)

- Molecule: "Oc1cc(-c2nc(-c3ccc(Oc4ccccc4)cc3)no2)ccc1I [96a]"
  Observed measurement: "failed to show activity"
- Molecule: "Oc1ccccc1-c1nc(-c2ccc(Oc3ccccc3)cc2)no1 [97a]"
  Observed measurement: "failed to show activity"
- Molecule: "FC(F)(F)c1ccc(Oc2ccc(-c3noc(-c4ccc(Br)cc4)n3)cc2)cc1 [81b]"
  Observed measurement: "loss of activity"
- Molecule: "O=C(Nc1c[nH]nc1-c1nc(-c2ccc(Oc3ccc(C(F)(F)F)cc3)cc2)no1)c1ccccc1 [108b]"
  Observed measurement: "did not extend"
- Molecule: "COC(=O)c1ccc(-c2nc(-c3ccc(Oc4ccc(F)cc4)cc3)no2)cc1 [90c]"
  Observed measurement: "failed to show activity"
- Molecule: "Nc1cncc(-c2nc(-c3ccc(Oc4ccc(F)cc4)cc3)no2)c1 [122c]"
  Observed measurement: "No activity"
- Molecule: "FC(F)(F)c1ccc(Oc2ccc(-c3noc(-c4n[nH]cc4NC4CCCCC4)n3)cc2)cc1 [106b]"
  Observed measurement: "did not extend"
- Molecule: "O=[N+]([O-])c1ccc(-c2nc(-c3ccc(Oc4ccccc4)cc3)no2)cc1 [82a]"
  Observed measurement: "loss of activity"

Task: # antibacterial activity (in words) lookup, item Oc1cccc(-c2nc(-c3ccc(Oc4ccccc4)cc3)no2)c1 [95a]
Output: failed to show activity

Task: Look at this molecule and give its reported antibacterial activity (in words). Oc1ccc(-c2nc(-c3ccc(Oc4ccc(C(F)(F)F)cc4)cc3)no2)cn1 [120b]
Output: No activity

Task: // query antibacterial activity (in words) value for entry CCn1ccc(-c2nc(-c3ccc(Oc4ccc(F)cc4)cc3)no2)n1 [118c]
Output: No activity

Task: Field request: antibacterial activity (in words) | item: Nc1cc(-c2nc(-c3ccc(Oc4ccc(C(F)(F)F)cc4)cc3)no2)cnc1O [121b]
Output: No activity
